- TARGET_OR_TEST_SYSTEM: DNA polymerase iota (Homo sapiens)
- EXPERIMENT: qHTS for Inhibitors of Polymerase Iota
- ASSAY_SETUP: Pol iota fluorescent replication assay, 10 min; series mostly up to 115 µM
Screen size: about 390,000 compounds; about 4,000 (1%) were called active. Another 7% or so got no clear call; they are omitted. Calls come from the whole dose curve; as a rule, active = well fitted inhibition curve with a large enough effect; inconclusive = small, poorly fitted or top-dose-only effect, or another doubt; inactive = no such curve, though single readings can be large or run the other way. The sample as a whole holds a higher share of actives than the screen did.
Please answer using one outcome listed in yes (1) (active), no (0) (inactive)

[[record]]
compound = "CN(C)c1nccc(NCc2ccccc2)c1C#N"
assigned_label = "no (0)"

[[record]]
compound = "O=C(Nc1ccc(OC(F)(F)F)cc1)C1CCCN(S(=O)(=O)c2ccc(Br)s2)C1 (stereo not drawn)"
assigned_label = "no (0)"

[[record]]
compound = "O=C(NC1CC(=O)N(c2ccc(Cl)cc2)C1)C1CCCC1 (stereo not drawn)"
assigned_label = "no (0)"

[[record]]
compound = "CC(=O)Nc1ccc(S(=O)(=O)Nc2ccc(-c3ccc4nnc(C)n4n3)cc2)cc1"
assigned_label = "no (0)"

[[record]]
compound = "C=CCNC(=O)CSc1nc2scc(-c3ccco3)c2c(=O)n1CC=C"
assigned_label = "yes (1)"


Now for a further compound.
Challenge: Kindly provide the recorded test outcome for the following compound: `Cc1cccc(NC(=O)CSc2nc(-c3ccco3)cc(C(F)(F)F)n2)c1C`
Response given: no (0)

###

- TARGET_OR_TEST_SYSTEM: DNA polymerase iota (Homo sapiens) (UniProt Q9UNA4)
- Sequence (Q9UNA4 whole entry, looked up): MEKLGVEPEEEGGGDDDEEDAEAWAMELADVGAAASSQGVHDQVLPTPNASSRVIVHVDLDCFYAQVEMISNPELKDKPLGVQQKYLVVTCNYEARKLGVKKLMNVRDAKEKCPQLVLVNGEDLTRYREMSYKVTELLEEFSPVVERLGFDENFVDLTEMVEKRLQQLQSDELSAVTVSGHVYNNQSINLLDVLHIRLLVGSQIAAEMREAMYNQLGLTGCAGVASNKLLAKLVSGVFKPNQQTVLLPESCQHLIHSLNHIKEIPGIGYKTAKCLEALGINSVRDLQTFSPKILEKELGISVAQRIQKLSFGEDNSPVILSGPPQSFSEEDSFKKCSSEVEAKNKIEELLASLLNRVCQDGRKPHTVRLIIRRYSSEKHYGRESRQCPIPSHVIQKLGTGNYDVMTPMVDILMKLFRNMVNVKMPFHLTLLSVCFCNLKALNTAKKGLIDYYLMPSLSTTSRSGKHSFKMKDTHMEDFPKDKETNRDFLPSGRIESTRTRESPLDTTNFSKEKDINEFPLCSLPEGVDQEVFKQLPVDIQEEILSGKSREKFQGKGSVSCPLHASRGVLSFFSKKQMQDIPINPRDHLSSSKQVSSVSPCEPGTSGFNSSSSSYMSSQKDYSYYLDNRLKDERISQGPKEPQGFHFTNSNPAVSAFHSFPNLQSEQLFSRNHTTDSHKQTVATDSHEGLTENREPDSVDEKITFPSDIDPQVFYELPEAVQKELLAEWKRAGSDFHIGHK
- EXPERIMENT: qHTS for Inhibitors of Polymerase Iota
- ASSAY_SETUP: Pol iota fluorescent replication assay, 10 min; series mostly up to 115 µM
Hit rate of the full screen: of about 390,000 compounds, about 4,000 (1%) were called active. Inconclusive results (about 7%) are left out. Calls come from the whole dose curve; as a rule, active = well fitted inhibition curve with a large enough effect; inconclusive = small, poorly fitted or top-dose-only effect, or another doubt; inactive = no such curve, though single readings can be large or run the other way. The list comes from a sample in which actives are over-represented; it also holds close analogues and randomly drawn compounds.
Valid outcomes are listed here; reply with one: true for active, false for inactive

Here's what some known entries look like.
[[record]]
smiles_data = "CCOc1c(Br)cc(/C=C2\\C(=O)N(CCC#N)N=C2C)cc1OC"
assigned_label = "true"

[[record]]
smiles_data = "COC(=O)c1ccccc1NS(=O)(=O)c1ccc2c(c1)CCCN2C(C)=O"
assigned_label = "false"

[[record]]
smiles_data = "Cc1ccc(S(=O)(=O)N2CCN(S(=O)(=O)N3CCOCC3)CC2)cc1"
assigned_label = "false"

[[record]]
smiles_data = "COc1ccc(Cn2c(O)c(/C=C3/C=CC=N3)c(=O)[nH]c2=O)cc1"
assigned_label = "false"


Now look at this one.
Challenge: What call does the record list for `CC1(C)CC(=O)C(N=Nc2ccc(S(=O)(=O)N3CCCCCC3)cc2)=C(O)C1` ?
Response given: false

###

- TARGET_OR_TEST_SYSTEM: DNA polymerase iota (Homo sapiens)
- EXPERIMENT: qHTS for Inhibitors of Polymerase Iota
- ASSAY_SETUP: Pol iota fluorescent replication assay, 10 min; series mostly up to 115 µM
Screen size: about 390,000 compounds; about 4,000 (1%) were called active. About 7% were inconclusive and are not listed. Calls follow the shape of the dose curve; as a rule, active = well fitted inhibition curve with a large enough effect; inconclusive = small, poorly fitted or top-dose-only effect, or another doubt; inactive = no such curve, though single readings can be large or run the other way. The full list was thinned out, with actives kept by preference.
Write down the outcome that applies. Available outcomes: 1 (yes) for active, 0 (no) for inactive

As a guide, the following entries are already answered.
[[record]]
smiles_data = "O=C(N/N=C/c1cccc(OC(=O)c2ccc([N+](=O)[O-])cc2)c1)c1cccnc1"
assigned_label = "0 (no)"

[[record]]
smiles_data = "COc1ccc(Cl)cc1NC(=O)CCS(=O)(=O)c1ccc(Br)cc1"
assigned_label = "1 (yes)"

[[record]]
smiles_data = "O=C(COC(=O)c1cccnc1Cl)NC(=O)NC1CCCCC1"
assigned_label = "0 (no)"

[[record]]
smiles_data = "CN(CCOc1ccccc1)C(=O)c1cc(-c2ccco2)nc2ccccc12"
assigned_label = "1 (yes)"


# next molecule below
Challenge: Just curious, what result did `Clc1cccc[n+]1CCCC[n+]1ccccc1Cl` get here?
Response given: 0 (no)

###

- TARGET_OR_TEST_SYSTEM: DNA polymerase iota (Homo sapiens)
- EXPERIMENT: qHTS for Inhibitors of Polymerase Iota
- ASSAY_SETUP: Pol iota fluorescent replication assay, 10 min; series mostly up to 115 µM
Screen size: about 390,000 compounds; about 4,000 (1%) were called active. Not shown: some 7% with an inconclusive outcome. The call rests on the fitted dose curve; in most records, active means well fitted inhibition curve with a large enough effect; inconclusive means small, poorly fitted or top-dose-only effect, or another doubt; inactive means no such curve, though single readings can be large or run the other way. What follows is part of a selection rich in actives, with near analogues and random picks from the rest.
Would you mind answering with one of these outcomes? TRUE = active, FALSE = inactive

Challenge: Give the logged outcome of this assay for the following molecule: Cc1ccc(CN2C(=O)SC(Nc3ccccc3)C2=O)cc1 (configuration not stated)
Response given: FALSE

Challenge: For this molecule, state the assay outcome: `c1ccc(-c2cc(-c3nnc4sc(-c5ccccn5)nn34)[nH]n2)cc1`
Response given: TRUE

Challenge: Per the assay record, what outcome was assigned to `Cc1ccc(Cl)cc1NC(=O)Cc1ccc(-n2c(C)nc3cccnc32)cc1` ?
Response given: FALSE

Challenge: // outcome(item) with item = `O=C1O/C(=C\c2ccc(O)cc2)C(O)=C1c1ccc(O)cc1`
Response given: FALSE

###

- TARGET_OR_TEST_SYSTEM: DNA polymerase iota (Homo sapiens) (UniProt Q9UNA4)
- EXPERIMENT: qHTS for Inhibitors of Polymerase Iota
- ASSAY_SETUP: Pol iota fluorescent replication assay, 10 min; series mostly up to 115 µM
The campaign covered roughly 390,000 compounds. About 4,000 (1%) were called active. Inconclusive results (about 7%) are left out. Calls follow the shape of the dose curve; as a rule, active = well fitted inhibition curve with a large enough effect; inconclusive = small, poorly fitted or top-dose-only effect, or another doubt; inactive = no such curve, though single readings can be large or run the other way. The sample holds actives, similar compounds and a random draw of the others, so the mix is not that of the screen.
One label from this list, please: 1.0 (active), 0.0 (inactive)

Challenge: Record request — test call for `O=C(O)c1cccnc1NC1CCCC1`
Response given: 1.0

###

- TARGET_OR_TEST_SYSTEM: DNA polymerase iota (Homo sapiens)
- EXPERIMENT: qHTS for Inhibitors of Polymerase Iota
- ASSAY_SETUP: Pol iota fluorescent replication assay, 10 min; series mostly up to 115 µM
In all, about 390,000 compounds went through this assay and about 4,000 (1%) were called active. Not shown: some 7% with an inconclusive outcome. Only a selection was taken, and actives are over-represented in it overall.
PARAMETER: outcome

[[record]]
smiles_data = "COc1ccc(Cn2c(=O)[nH]c3cc(C(=O)N4CCN(C(=O)c5ccco5)CC4)ccc3c2=O)cc1"
obs_value = "inactive"

[[record]]
smiles_data = "Cc1ccc(Cn2c(=O)n(-c3ccc(C)cc3)c(=O)c3c2c2cc(C)ccc2n3C)cc1"
obs_value = "inactive"

[[record]]
smiles_data = "Cc1ccsc1-c1cc(C(=O)O)c2c(ccc3ccccc32)n1"
obs_value = "inactive"


###

- TARGET_OR_TEST_SYSTEM: DNA polymerase iota (Homo sapiens) (UniProt Q9UNA4)
- EXPERIMENT: qHTS for Inhibitors of Polymerase Iota
- ASSAY_SETUP: Pol iota fluorescent replication assay, 10 min; series mostly up to 115 µM
Out of some 390,000 compounds screened, about 4,000 (1%) were called active. About 7% were inconclusive and are not listed. Calls come from the whole dose curve; as a rule, active = well fitted inhibition curve with a large enough effect; inconclusive = small, poorly fitted or top-dose-only effect, or another doubt; inactive = no such curve, though single readings can be large or run the other way. The entries come from a sample that favours actives as a whole.
Returns: one label drawn from active, inactive

Worked examples follow.
[[record]]
smiles_data = "Cc1ccnc(-n2sc3ccccc3c2=O)n1"
assigned_label = "active"

[[record]]
smiles_data = "CC(C)(C)c1ccc(C(=O)NCc2nnc(SCC(=O)N3CCCc4ccccc43)n2-c2ccccc2)cc1"
assigned_label = "inactive"

[[record]]
smiles_data = "CCc1ccc(NC(=O)Cn2nnc(C(=O)NCc3ccc4c(c3)OCO4)c2N)cc1"
assigned_label = "inactive"


Now take the following molecule into account.
Challenge: Field: outcome | Entry: `Cc1ccc(C(=O)N2CCc3cc(CNC(=O)c4ccc(Br)cc4)ccc32)cc1`
Response given: inactive

These measurements were taken from PubChem BioAssay AID588590.
